B1: Ribonuclease HI, P0A7Y4 (parent)
chain: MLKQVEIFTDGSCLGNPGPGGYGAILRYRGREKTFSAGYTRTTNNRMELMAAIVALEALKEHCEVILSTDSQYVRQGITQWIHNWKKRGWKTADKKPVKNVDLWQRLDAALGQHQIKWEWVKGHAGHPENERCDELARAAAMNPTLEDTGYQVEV

- Variants of: B1
- CONDITION_SET: Escherichia coli (strain K12); pH 5.5; 25 °C; GdnHCl; CD; Sodium acetate 20 mM; reversible: yes; structure 2RN2; whole UniProt chain shown
Listed variants paired with reported ddG of mutation (higher = less stable)
EXPERIMENTAL_READOUT: ddG of mutation (higher = less stable) (kcal/mol)

>>> measured_value("H83A")
-0.22
>>> measured_value("H124A")
-0.17
>>> measured_value("H62A")
-0.36
>>> measured_value("H127A")
0.24
